- systemUnderTest: SARS-CoV-2 3CLpro (Severe acute respiratory syndrome coronavirus 2)
- Construct: containing 0.25 μM SARS-CoV-2 3CLpro
- experimentSummary: Real-time FRET protease assay with SARS-CoV-2 3CLpro and dose-response curve analysis
- Type: biochemical

| compound | systemUnderTest | IC50 |
| --- | --- | --- |
| CC1=CCC(C(C)(C)O)C[C@@H]1O (stereo partly drawn) [ARH013-DS1, trans-p-menth-6-ene-2,8-diol] | SARS-CoV-2 3CLpro (Severe acute respiratory syndrome coronavirus 2) | 32.9 µM |

* * *

Recorded log10 IC50 values for a group of compounds are listed next.
- systemUnderTest: SARS-CoV-2 3CLpro (Severe acute respiratory syndrome coronavirus 2)
- Construct: containing 0.25 μM SARS-CoV-2 3CLpro
- experimentSummary: Real-time FRET protease assay with SARS-CoV-2 3CLpro and dose-response curve analysis
- Format: biochemical
- conditions: Real-Time; 0-100 μM, pre-incubated 1 h at 37° C. with 0.25 μM 3CLpro; read-out: IC50 (μM), inhibition of SARS-CoV-2 3CLpro (Real-Time)
observedProperty: log10 IC50 (log10 of the value in µM)

| compound | log10 IC50 |
| --- | --- |
| CC(=O)O[C@@H]1[C@@H](O)[C@@H](OC(C)=O)[C@H](Oc2c(-c3ccc(O)cc3)oc3cc(O)cc(O)c3c2=O)O[C@H]1C [ARH 007-DS5] | 1.68 |
| C=C1CCCC(C)(C)C1Cc1c(O)cc2oc(-c3ccc(O)c(O)c3)cc(=O)c2c1O (stereo not drawn) [ARH 020-DS1, ugonin J] | 1.17 |
| O=c1cc(O)oc(/C=C/c2ccc(O)c(O)c2)c1 [ARH 019-DS2] | 0.40 |
| CC(=O)/C=C(O)/C=C/c1ccc(O)c(O)c1 [ARH 019-DS1] | 1.28 |
| CC1(C)CCC[C@@]2(C)Oc3c(O)ccc(-c4oc5cc(O)cc(O)c5c(=O)c4O)c3C[C@@H]12 [ARH 020-DS2, ugonin N] | 0.80 |
| CC(=O)O[C@@H]1[C@@H](OC(C)=O)[C@@H](O)[C@H](Oc2c(-c3ccc(O)cc3)oc3cc(O)cc(O)c3c2=O)O[C@H]1C [ARH 007-DS4] | 1.27 |
